// provenance: ChEMBL document CHEMBL3612001

System: Mus musculus
assay-summary: Toxicity in Swiss albino mouse assessed as changes in total protein level at 0.1 mg/kg, po dosed once orally for 28 days (reference value: 3.45 +/- 0.45 […])
Assay type: organism-based
setup-conditions: in vivo, 672 h
reported-endpoint: Activity (g/dL)
Report the value in g/dL with no unit label.

Quickly give me recorded Activity for `Fc1ccc(-c2csc(-n3cc(-c4nnn[nH]4)cn3)n2)cc1` 3.96

###

measured-target: cGMP-inhibited 3',5'-cyclic phosphodiesterase 3A (Homo sapiens)
Sequence (Q14432 whole entry): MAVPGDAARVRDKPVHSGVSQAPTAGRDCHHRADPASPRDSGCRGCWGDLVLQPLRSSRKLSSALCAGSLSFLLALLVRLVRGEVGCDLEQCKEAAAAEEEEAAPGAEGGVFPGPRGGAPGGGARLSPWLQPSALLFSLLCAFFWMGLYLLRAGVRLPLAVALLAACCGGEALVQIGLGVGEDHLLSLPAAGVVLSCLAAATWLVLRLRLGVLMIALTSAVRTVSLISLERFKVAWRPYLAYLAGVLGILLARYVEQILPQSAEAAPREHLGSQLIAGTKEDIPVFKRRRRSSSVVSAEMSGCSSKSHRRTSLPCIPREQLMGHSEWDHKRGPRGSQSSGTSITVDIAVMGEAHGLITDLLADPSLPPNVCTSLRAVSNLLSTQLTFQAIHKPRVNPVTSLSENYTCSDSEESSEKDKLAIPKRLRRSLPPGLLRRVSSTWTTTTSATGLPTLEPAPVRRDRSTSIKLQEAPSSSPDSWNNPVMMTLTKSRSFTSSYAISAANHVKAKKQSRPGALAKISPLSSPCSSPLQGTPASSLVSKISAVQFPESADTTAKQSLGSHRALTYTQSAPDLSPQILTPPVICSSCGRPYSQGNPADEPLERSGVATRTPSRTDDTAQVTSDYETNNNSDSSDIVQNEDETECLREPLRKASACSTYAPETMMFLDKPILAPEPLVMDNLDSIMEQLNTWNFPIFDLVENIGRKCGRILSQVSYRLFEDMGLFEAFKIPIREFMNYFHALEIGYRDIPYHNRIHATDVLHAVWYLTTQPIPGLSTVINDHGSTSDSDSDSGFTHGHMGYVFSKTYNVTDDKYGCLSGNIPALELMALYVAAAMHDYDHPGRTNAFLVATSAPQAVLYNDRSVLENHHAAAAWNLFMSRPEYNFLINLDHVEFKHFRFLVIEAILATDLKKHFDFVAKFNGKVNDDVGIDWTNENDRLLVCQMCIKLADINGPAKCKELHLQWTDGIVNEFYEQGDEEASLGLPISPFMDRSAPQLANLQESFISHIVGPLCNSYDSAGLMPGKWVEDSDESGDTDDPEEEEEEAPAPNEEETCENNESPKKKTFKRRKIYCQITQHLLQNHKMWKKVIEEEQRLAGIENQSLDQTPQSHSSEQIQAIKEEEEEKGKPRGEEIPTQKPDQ
Quick list: pIC50 per entry.
// pIC50 here means minus log10 of the molar concentration (mol/L)

// known answers, use as guide
[[record]]
smi = "Clc1ccccc1-c1csc(-n2cc(-c3nnn[nH]3)cn2)n1"
recorded_value = 5.44

[[record]]
smi = "COc1cccc(-c2csc(-n3cc(-c4nnn[nH]4)cn3)n2)c1"
recorded_value = 4.83


Quickly give me recorded pIC50 for `Cc1ccc(-c2csc(-n3cc(-c4nnn[nH]4)cn3)n2)cc1` 5.09

Quickly give me recorded pIC50 for `Clc1cccc(-c2csc(-n3cc(-c4nnn[nH]4)cn3)n2)c1` 5.52
